experimental-system: T1, IL-11 protein (UniProt P20809 22-199, limits assumed)
T1 construct: also called IL-11 antigen
T1 sequence (looked up): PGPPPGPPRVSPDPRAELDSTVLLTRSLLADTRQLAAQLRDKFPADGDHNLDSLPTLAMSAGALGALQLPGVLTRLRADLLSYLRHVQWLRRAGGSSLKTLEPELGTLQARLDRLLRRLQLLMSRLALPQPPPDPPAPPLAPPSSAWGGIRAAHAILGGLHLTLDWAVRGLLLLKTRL
method-notes: SPR (Biacore), antibody captured, 400 nM IL-11 as analyte
value-type: pKd
Scale for pKd: -log10 of concentration given in mol/L; no unit attached.

Reference set (2 entries):
VH4 + VL2-scFv (scFv, V domains shown, Humanized 5-20E11-5F2; CHO supernatant; Called scFv, but heavy and light vectors were co-transfected) VH: QVQLVQSGAEVKKPGASVKVSCKASDYTFTNYWLGWVRQAPGHGLEWIGHIYPGGGYTNYNEKFKGRATLTADTSTSTVYMELSSLRSEDTAVYFCARVRSGNDALDFWGQGTLVTVSS VL: EIVLTQSPATLSLSPGERATLSCRASESVDEYGISFMNWYQQKPGQAPRLLIYSASNQGSGIPARFSGSGSGTDFTLTISSLEPEDFAVYFCQQSKEVPWTFGGGTKLEIK: 7.95
VH1 + VL2-scFv (scFv, V domains shown, Humanized 5-20E11-5F2; CHO supernatant; Called scFv, but heavy and light vectors were co-transfected) VH: QVQLVQSGAEVKKPGASVKVSCKASDYTFTNYWLGWVRQAPGQGLEWMGHIYPGGGYTNYNEKFKGRVTMTRDTSTSTVYMELSSLRSEDTAVYYCARVRSGNDALDFWGQGTLVTVSS VL: EIVLTQSPATLSLSPGERATLSCRASESVDEYGISFMNWYQQKPGQAPRLLIYSASNQGSGIPARFSGSGSGTDFTLTISSLEPEDFAVYFCQQSKEVPWTFGGGTKLEIK: 7.95

Let us examine a further case.
**Q:** For the binder VH2 + VL2-scFv (scFv, V domains shown, Humanized 5-20E11-5F2; CHO supernatant; Called scFv, but heavy and light vectors were co-transfected) VH: QVQLVQSGAEVKKPGASVKVSCKASDYTFTNYWLGWVRQAPGQGLEWIGHIYPGGGYTNYNEKFKGRVTMTADTSTSTVYMELSSLRSEDTAVYFCARVRSGNDALDFWGQGTLVTVSS VL: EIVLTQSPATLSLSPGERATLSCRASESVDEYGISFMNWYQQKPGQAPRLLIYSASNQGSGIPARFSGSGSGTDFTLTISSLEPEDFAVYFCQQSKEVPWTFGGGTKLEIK , what pKd is on record?
**A:** 7.75
